Test: Plasma pharmacokinetics of pamiparib, single dose and steady state, non-compartmental
Type: in vivo, human
Conditions: human, plasma, oral, 20 mg, Steady state (Cycle 1 Day 10), 20 mg BID, N 4; geometric mean (geometric CV%); read-out: AUC0-9
quantity: AUC(0-t) (µg·h/mL)
Express it in µg·h/mL; write the number only.

**Q:** Identify AUC(0-t) associated with the compound "C[C@]12CCCN1CC1=NNC(=O)c3cc(F)cc4[nH]c2c1c34"
**A:** 8.36

====

Test: Plasma pharmacokinetics of pamiparib, single dose and steady state, non-compartmental
Assay type: in vivo, human
Conditions: human, plasma, oral; Single dose, 20 mg BID cohort, N 4; geometric mean (geometric CV%)
quantity: AUC(0-inf) (ng·h/mL)
Express it in ng·h/mL; write the number only.

**Q:** Identify AUC(0-inf) associated with the compound "C[C@]12CCCN1CC1=NNC(=O)c3cc(F)cc4[nH]c2c1c34"
**A:** 10200
